# Test system: Caspase 3
# TEST NAME: Caspase 3 detection assay in SJSA1 cells
# Type: cell-based
# TEST SETTINGS: 0.3 μM, SJSA1, 48 h, Caspase 3 activation over DMSO-treated cells
Bridge positions count the residues as written; N and C are the ends. Square brackets hold non-standard residues; d marks the D form. Peptide text beside a SMILES is read from it. R8 = C=CCCCCCC[C@@](C)(N)C(=O)O; S5 = C=CCCC[C@](C)(N)C(=O)O

MOLECULE	caspase 0.3 μM
CSCC[C@H](NC(=O)[C@H](C)NC(=O)[C@H](C)NC(=O)[C@]1(C)CCCC=CCCCCCC[C@@](C)(NC(=O)[C@H](Cc2ccccc2)NC(=O)[C@@H](NC(=O)[C@H](CC(C)C)NC(C)=O)[C@@H](C)O)C(=O)N[C@@H](C)C(=O)N[C@@H](Cc2ccc(O)cc2)C(=O)N[C@@H](Cc2c[nH]c3ccccc23)C(=O)N[C@@H](C)C(=O)N[C@@H](C)C(=O)N[C@@H](CC(C)C)C(=O)N1)C(=O)N[C@H](C)C(N)=O [compound 72] (Ac-LTF[R8]AYWAAL[S5]AAM[dA]-NH2; staple 4-11)	1

* * *

# System: Caspase 3
# TEST NAME: Caspase 3 detection assay in SJSA1 cells
# Assay type: cell-based
# TEST SETTINGS: 0.3 μM, SJSA1, 48 h, Caspase 3 activation over DMSO-treated cells
Bridge positions count the residues as written; N and C are the ends. Square brackets hold non-standard residues; d marks the D form. Peptide text beside a SMILES is read from it. R8 = C=CCCCCCC[C@@](C)(N)C(=O)O; S5 = C=CCCC[C@](C)(N)C(=O)O

COMPOUND	caspase 0.3 μM
CC(=O)N[C@@H](CCC(=O)O)C(=O)N[C@H](C(=O)N[C@@H](Cc1ccccc1)C(=O)N[C@]1(C)CCCCCCC=CCCC[C@@](C)(C(=O)N[C@@H](CO)C(=O)N[C@H](C(=O)N[C@@H](C)C(N)=O)C(C)C)NC(=O)[C@H](CC(C)C)NC(=O)[C@H](CCC(N)=O)NC(=O)[C@H](C)NC(=O)[C@H](Cc2c[nH]c3ccccc23)NC(=O)[C@H](Cc2ccc(O)cc2)NC(=O)[C@H](C(C)C)NC1=O)[C@@H](C)O [compound 126] (Ac-ETF[R8]VYWAQL[S5]SVA-NH2; staple 4-11)	1
CC(=O)N[C@@H](CC(C)C)C(=O)N[C@H](C(=O)N[C@@H](Cc1ccccc1)C(=O)N[C@]1(C)CCCCCCC=CCCC[C@@](C)(C(=O)N[C@@H](CO)C(=O)N[C@@H](C)C(=O)N[C@@H](CO)C(N)=O)NC(=O)[C@H](CC(C)C)NC(=O)[C@H](CCC(N)=O)NC(=O)[C@H](C)NC(=O)[C@H](Cc2c[nH]c3ccccc23)NC(=O)[C@H](Cc2ccc(O)cc2)NC(=O)[C@H](C)NC1=O)[C@@H](C)O [compound 122] (Ac-LTF[R8]AYWAQL[S5]SAS-NH2; staple 4-11)	1
CC(=O)N[C@@H](CC(C)C)C(=O)N[C@H](C(=O)N[C@@H](Cc1ccccc1)C(=O)N[C@]1(C)CCCCCCC=CCCC[C@@](C)(C(=O)N[C@@H](C)C(=O)N[C@@H](C)C(=O)N[C@@H](C)C(=O)N[C@@H](C)C(=O)N[C@@H](C)C(=O)N[C@@H](C)C(=O)N[C@H](C)C(N)=O)NC(=O)[C@H](CC(C)C)NC(=O)[C@H](CCC(N)=O)NC(=O)[C@H](C)NC(=O)[C@H](Cc2c[nH]c3ccccc23)NC(=O)[C@H](Cc2ccc(O)cc2)NC(=O)[C@H](C)NC1=O)[C@@H](C)O (single isomer, unassigned) [compound 316]	6.5
CCCC[C@H](NC(=O)[C@H](C)NC(=O)[C@H](C)NC(=O)[C@]1(C)CCC/C=C/CCCCCC[C@@](C)(NC(=O)[C@H](Cc2ccccc2)NC(=O)[C@@H](NC(=O)[C@H](CC(C)C)NC(C)=O)[C@@H](C)O)C(=O)N[C@@H](C)C(=O)N[C@@H](Cc2ccc(O)cc2)C(=O)N[C@@H](Cc2c[nH]c3ccccc23)C(=O)N[C@@H](C)C(=O)N[C@@H](CCC(N)=O)C(=O)N[C@@H](CC(C)C)C(=O)N1)C(=O)N[C@@H](C)C(N)=O	4.34

The values you see were collected from patent US20200369728A1.
